target: recombinant DYRK1A kinase (Homo sapiens (Human), UniProt Q13627); assay: DYRK1A kinase assay (Ser/Thr 18 peptide Z-lyte FRET assay); conditions: DYRK1A 0.25 μg/mL, ATP 15 μM, Ser/Thr peptide 18 4 μM; one hour at room temperature; 11-point dose-response, duplicate
measurement-name: IC50 (nM)

CNc1nc(N[C@@H]2CCN(C(C)=O)CC2(F)F)nn2ccc(-c3ccc4nc(C)n(CC(F)F)c4n3)c12 :: 4.7
CNc1nc(NC2CCC(F)(F)CC2)nn2ccc(-c3ccc4ncn(CCF)c4n3)c12 :: 2.2
CNc1nc(N[C@@H]2[C@@H]3COC[C@@H]32)nn2ccc(-c3ccc4nc(C)n(CC(F)F)c4n3)c12 :: 4.1

(a) C[C@]1(O)CC[C@H](Nc2nc(N)c3c(-c4ccn5nccc5c4)ccn3n2)CC1
(b) CNc1nc(N[C@@H]2CCN(C)CC2(F)F)nn2ccc(-c3ccc4nnn(CC(F)(F)F)c4n3)c12
(c) CNc1nc(N[C@@H]2CCN(C)CC2(F)F)nn2ccc(-c3ccn4nccc4n3)c12
(d) CNc1nc(N[C@H]2CC[C@H](NC(C)=O)CC2)nn2ccc(-c3ccc4nc(C)n(CC(F)F)c4n3)c12
Reorder: IC50, max to min. Answer format: the labels, in the requested order.
a, c, b, d

---

target: recombinant DYRK1A kinase (Homo sapiens (Human), UniProt Q13627); experiment: DYRK1A kinase assay (Ser/Thr 18 peptide Z-lyte FRET assay); details: DYRK1A 0.25 μg/mL, ATP 15 μM, Ser/Thr peptide 18 4 μM; one hour at room temperature; 11-point dose-response, duplicate
measurement-name: IC50 (nM)

Worked cases, IC50 given:
Nc1nc(N[C@@H]2CCN(C3COC3)CC2(F)F)nn2ccc(-c3ccc4ncn(CC(F)F)c4n3)c12 :: 0.6
CNc1nc(N[C@H]2CC[C@@](C)(O)CC2)nn2ccc(-c3ccc4ncn(CC(F)F)c4n3)c12 :: 0.4
CNc1nc(N[C@H]2CCN(C3COC3)C[C@H]2F)nn2ccc(-c3ccc4nnn(CC(F)(F)F)c4n3)c12 :: 2
CNc1nc(N[C@H]2CCN(C(C)=O)C[C@H]2F)nn2ccc(-c3ccc4nc(C)n(CC(F)F)c4n3)c12 :: 0.4
CNc1nc(NC2CCC3(CC2)OCCO3)nn2ccc(-c3ccc4nc(C)n(CC(F)F)c4n3)c12 :: 1.8
CNc1nc(NC2CCN(CC(F)F)CC2)nn2ccc(-c3ccc4nc(C)n(CC(F)F)c4n3)c12 :: 0.7
CNc1nc(N[C@H]2CC[C@]3(CCO3)CC2)nn2ccc(-c3ccc4nc(C)n(CC(F)F)c4n3)c12 :: 3.3
CNc1nc(N[C@H]2CCN(C3COC3)C[C@H]2F)nn2ccc(-c3ccc4ncn(CC(F)(F)F)c4n3)c12 :: 1.5
CNc1nc(N[C@@H]2CCN(C)CC2(F)F)nn2ccc(-c3ccc4nnn(CC(F)F)c4n3)c12 :: 0.6
Cc1nc2ccc(-c3ccn4nc(N[C@@H]5CCN(C)CC5(F)F)nc(NC(C)C)c34)nc2n1CC(F)F :: 7.3

(1) Cc1nc2ccc(-c3ccn4nc(N[C@@H]5CCNCC5(F)F)nc(NC(C)C)c34)nc2n1CC(F)F
(2) CNc1nc(N[C@@H]2CCN(C3COC3)CC2(F)F)nn2ccc(-c3ccc4ncn(CC(F)F)c4n3)c12 [Compound 351]
Just curious, which one has the larger IC50 reading, 1 or 2 ? Write down the label attached to your selection.
2
(2: 365 nM, 1: 6.4 nM)
